system: UACC-62; experiment: NCI tumour cell line growth inhibition, 48 h
Where a name gives a salt, the structure may show the parent alone. Active and inactive are the calls of the source. Rule as the data show it: active = GI50 up to about 1.1 µM and inactive = higher.
Outcomes: active, inactive

1) CCN(CC)CCNc1ccc(C)c2sc3ccccc3c(=O)c12 [LUCANTHONE HYDROCHLORIDE] : inactive
2) O=c1nc2occc2cn1C1CC(O)C(CO)O1 (centres undefined) : inactive
3) COc1ccc(C(=O)/C(Br)=C/C(=O)O)cc1 : inactive
4) COc1ccc(C(=O)c2ccc(-n3cc(/C=C/[N+](=O)[O-])c4ccccc43)cc2)cc1 : inactive
5) CC1=CC(=O)CC(C)(C)C1(O)/C=C/C(C)=C/C(=O)O (centres undefined) : inactive
6) CC(=O)c1sc2c(c1OC(=O)c1cccs1)c(=O)n(-c1ccccc1)c(=S)n2-c1ccccc1 : inactive
7) Oc1c(Br)cc(Br)cc1CN(Cc1cc(Br)cc(Br)c1O)C1CCCCC1 : inactive
8) CCC(C)C(N)C(=O)N/N=C\c1c2c(nc3ccccc13)-c1cc3c(c(=O)n1C2)COC(=O)[C@]3(O)CC (some centres undefined) : active
9) Cn1ncc2c(c1=O)Nc1ccccc1S2(=O)=O : inactive

* * *

Quick list: GI50 per entry.
test system: SW-620; experiment: NCI tumour cell line growth inhibition, 48 h
Calls of active or inactive are those of the source. Rule as the data show it: active = GI50 up to about 1.1 µM and inactive = higher.
property: GI50

1) Cc1ccsc1C(=S)Nc1ccc(Cl)c(/C=N/OC(C)C)c1 : 34.3 µM (inactive)
2) COC(=O)c1ccc(N/C=C(/C#N)c2ccsc2)cc1 : 21.3 µM (inactive)
3) CC(C)(C)OC(=O)N1CCCC1C(=O)NCCNc1ccc(NCCNC(=O)C2CCCN2C(=O)OC(C)(C)C)c2c1C(=O)c1ccccc1C2=O (stereo not given) : 13.8 µM (inactive)
4) CC(C)N1C(C)[C@@H](c2ccccc2)O[P@]1(=O)CC1=CCCCC1 (stereo not given in full) : 61.2 µM (inactive)
5) O=c1nc2occc2cn1C1CC(O)C(CO)O1 (stereo not given) : > 100 µM (inactive)
6) CCCCN[C@H]1C2C3CC4C5CC(C42)C1(C)C53 (stereo not given in full) : > 100 µM (inactive)
7) O=C(c1ccccc1)n1cc(-c2ccccc2)c2c(=O)nc[nH]c21 : > 100 µM (inactive)
8) CC(C)c1cccc(C(C)C)c1NC(=O)C(=O)CC(=O)CC(c1ccccc1)c1c(O)oc2ccccc2c1=O (stereo not given) : > 100 µM (inactive)
9) Cc1cc(=O)[nH]c(-n2[nH]c(C)c(CCO)c2=O)n1 : > 100 µM (inactive)
10) COC(=O)c1ccc(C(=O)OC)c2nc3cc(C)ccc3nc12 : > 100 µM (inactive)

* * *

test system: RPMI-8226; assay: NCI tumour cell line growth inhibition, 48 h
Calls of active or inactive are those of the source. Cut-off read from the data, not from the text of the source: active = GI50 up to about 1.1 µM and inactive = higher.
Outcomes: Y (active), N (inactive)

1. O=C(O)c1cc(-c2ccc(-c3ccccc3)cc2)nc2cc3ccccc3cc12 : N
2. CCNC(=S)NNC(=O)CSc1nc2ccc(I)cc2c(=O)n1Cc1ccccc1 : N
3. COc1cccc2cc(C(=O)Nc3ccccc3)c(=N)oc12 : N
4. COc1ccccc1NC(=S)N/N=C/c1cccc(C)n1 : N
5. Cc1cc(C)nc(NS(=O)(=O)c2ccc(NNc3c4ccccc4nc4c(C(=O)Nc5ccc(S(=O)(=O)N=C(N)N)cc5)cccc34)cc2)n1 : N
6. COc1ccc([C@@H]2OC(=O)C3C2C(=O)O[C@H]3c2ccc(OC)c(OC)c2)cc1OC (some centres not stated) : N
7. O=P1(c2ccccc2)C(c2ccccc2)=CC=C1c1ccccc1 : N
8. C=C1C(=O)[C@]23[C@H](O)[C@H]1CC[C@H]2[C@@]12CO[C@@]3(O)C[C@@H]1C(C)(C)CC[C@@H]2O [MEGATHYRIN A] : N
9. CC(C)(C)OC(=O)NNC(=O)C1Cc2ccccc2OC1=O (configuration not stated) : N
10. N/N=C1\C(=O)N(c2ccc(Cl)c(Cl)c2)C(=O)C1C(=O)Nc1ccc(Cl)c(Cl)c1 (configuration not stated) : N
11. NC(=O)NCCCC(NC(=O)OCCCCn1ccc(=O)[nH]c1=O)C(=O)O (configuration not stated) : N
12. O=C(/C=C1/NC(=O)CS1)Nc1ccccc1 : N
13. N#CC1CCN2N=C(c3ccccc3)SC12c1ccccc1 (configuration not stated) : N
14. COC(=O)/C(=N/NC(=O)C[N+](C)(C)C)C(C(=O)OC)C(=O)C(=O)Nc1ccc(F)cc1 (configuration not stated) : N
15. CN(C)CCCN1c2ccc([N+](=O)[O-])cc2CCc2cccc([N+](=O)[O-])c21 : N
16. COC(=O)C1(C(=O)OC)N=C(C)OC1/C=C/c1ccccc1 (configuration not stated) : N
17. O=C1CSC(c2ccc([N+](=O)[O-])cc2)N1c1ccc(-c2ccc(-n3c(-c4ccccc4)nc4ccccc4c3=O)cc2)cc1 (configuration not stated) : N
18. N#CCC1C2CC3C(C2=O)C13 (configuration not stated) : N
19. CC(=O)NC1C(OCc2ccccc2)OC(CO)C(O)C1OCC(=O)N[C@@H](C)C(=O)N[C@H](CCC(=O)NCCCNc1c2ccccc2nc2cccc([N+](=O)[O-])c12)C(N)=O (some centres not stated) : Y
20. COc1ccc(NC(C)=O)cc1N1C(=O)/C(=C\c2cccc(Oc3ccccc3)c2)S(=O)(=O)C1c1ccccc1 (configuration not stated) : N
21. O=C(CCC(=O)c1ccc(Cl)cc1)NO : N
22. CCOC(=O)C1=C(C(=O)OCC)C2c3ccccc3C=CN2C(C(=O)OCC)=C(SC)S1 (configuration not stated) : N
23. CCC1(c2ccccc2)C(=O)N=C(c2ccccc2)N1CCc1ccccc1 (configuration not stated) : N
24. COc1cccc(N2C(=O)C3c4[nH]c5ccc(C)cc5c4C4CCC(C)CC4C3C2=O)c1 (configuration not stated) : N
25. COC1OC2COC(C)(C)OC2C2OC(C)(C)OC12 (configuration not stated) : N
26. C=C1C(=O)OC2C1CC(OC(C)=O)/C(C)=C/CCC1(C)OC21 (configuration not stated) : N
27. Cc1cccc(C)c1NC(=O)C(=O)CC(=O)c1cccc([N+](=O)[O-])c1 : N
